Measured values drawn from ChEMBL document CHEMBL3433997 for this set.

Recorded inhibition, one value per entry.
Biological target: Hexose transporter 1 (Plasmodium falciparum) (UniProt O97467)
Experiment: ST_JUDE_LEISH: Cytotoxicity at 2uM final concentration against transgenic Leishmania Mexicana promastigotes LmPfHT that are glucose transport deficient and complemented with the Plasmodium falciparum hexose transporter. Activity is measured by DNA content using SYBR green in vitro
Assay type: functional
readout type: inhibition (%)

In [3]: df
Out[3]:
                                   molecule                               test_target  readout_unit  result_value
0  N#Cc1ccc(-c2ccc(C(=O)NC3CCN(CCN4CCC(c5cn(CCOC6CCCCO6)c6ccccc56)CC4)CC3)cc2)cc1 (centres undefined)  Hexose transporter 1 (Plasmodium falciparum) (UniProt O97467)             %          6.81
1  O=C(O)C[C@H](NC(=O)[C@@H]1CCCN1C(=O)c1cccc(-c2ccc(Cl)c(Cl)c2)c1)C(=O)O  Hexose transporter 1 (Plasmodium falciparum) (UniProt O97467)             %          0.14
2  CCCCCCC1(C)N=C(N)N=C(N)C1c1ccc(Cl)c(Cl)c1 (centres undefined)  Hexose transporter 1 (Plasmodium falciparum) (UniProt O97467)             %          1.39
3  CCCN(CCC)CCCN(CCCN(CCC)CCC)c1cc(C)nc(Nc2ccc(Cl)cc2)n1  Hexose transporter 1 (Plasmodium falciparum) (UniProt O97467)             %          1.71
4  C=C1C(C(=O)OCC)=CN(CC)c2cc(O[C@H]3CCN(C(=O)OC(C)(C)C)C3)ccc21  Hexose transporter 1 (Plasmodium falciparum) (UniProt O97467)             %          2.53
5  Cc1cccc2nc(-c3cccc(-c4ccc(NC(=O)Nc5ccsc5)cc4)c3)[nH]c12  Hexose transporter 1 (Plasmodium falciparum) (UniProt O97467)             %          4.66
6  O=C(Nc1ccc(C(=O)Nc2cccc(C3=NCCN3)c2)cc1)Nc1ccc(C2=NCCN2)cc1  Hexose transporter 1 (Plasmodium falciparum) (UniProt O97467)             %          0.34
7  Cc1nnc2c(NC(=O)/C=C/c3ccc(OC(F)(F)F)cc3)cc3cc(Cl)ccc3n12  Hexose transporter 1 (Plasmodium falciparum) (UniProt O97467)             %          0.28
8         N=C(N)NC(=O)Nc1cc(Cl)c(Cl)c(Br)c1  Hexose transporter 1 (Plasmodium falciparum) (UniProt O97467)             %          5.82

====

Recorded inhibition, one value per entry.
Target: Solute carrier family 2, facilitated glucose transporter member 1 (Homo sapiens)
Test: ST_JUDE_LEISH: Cytotoxicity at 2uM final concentration against transgenic Leishmania Mexicana promastigotes LmGLUT1 that are glucose transport deficient and complemented with the human glucose transporter GLUT1. Activity is measured by DNA content using SYBR green in vitro
Format: functional
readout type: inhibition (%)

In [3]: df
Out[3]:
                                   molecule  readout_type  result_value
0  COc1ccc(OC)c(NC(=O)C2c3ccccc3C(=O)N(CC(C)C)C2c2cccs2)c1 (stereo not given)    inhibition         -1.99
1  Cc1ccc(C(c2nnnn2C2CCCC2)N(Cc2ccco2)Cc2ccccc2Cl)cc1 (stereo not given)    inhibition           9.7
2  N#Cc1ccc2c(c1)CCN(CCCn1c(-c3ccc4ccccc4c3)nc3ccncc31)CC2    inhibition          15.1
3  CCCCn1c(SC(C)C)nc2c(c1=O)C1(CCCCC1)Cc1ccccc1-2    inhibition          4.14
4  Cn1nc(-c2cccc(CNCCc3cccs3)c2)c2cnc(NC3CCCC3)nc21    inhibition          5.58
5  O=C(CCNc1ccnc(NCCc2ccc(F)cc2)n1)Nc1ccccc1    inhibition          3.86
6  Cc1cccc2nc(-c3ccc(-c4cccc(CN5CCN(c6ccncc6)CC5)c4)s3)[nH]c12    inhibition          4.03
7  Cc1nc(-c2cccc(Nc3nccc(NCC(O)c4ccccc4)n3)c2)cs1 (stereo not given)    inhibition          1.43
8  Cn1nc(C(F)(F)F)c(-c2ccc(F)cc2)c1NC(=O)Nc1ccc(F)cc1F    inhibition          2.96
9  COCCNCc1cccc(C#Cc2cc3ncnc(Nc4ccc(OCc5cccc(F)c5)c(Cl)c4)c3s2)n1    inhibition          5.28
